Test system: OVCAR-5 ovarian
Assay Notes: NCI tumour cell line growth inhibition, 48 h
Test Readout: TGI

I'd like to know its TGI. The compound in question is Cc1cc(S(=O)(=O)Nc2nc(N)n(-c3ccccn3)n2)c(S)cc1Cl
> 100 µM

Quick one: TGI for O=[N+]([O-])c1ccc2c(c1)S(=O)(=O)N1Cc3ccccc3CCN21 ?
> 100 µM

Reported TGI for CC1CN1C(=O)NCCCCCCNC(=O)N1CC1C (stereo unspecified) : what is it?
> 100 µM

Name the recorded TGI for O=c1[nH]nc(-c2ccccc2)n1-c1ccncc1 .
> 100 µM

So what does the record say about TGI for CCN(CC)C(c1ccc(N(C)C)cc1)C(c1ccc(N(C)C)cc1)N(CC)CC (stereo unspecified) ?
> 73 µM

Look at this compound and give its reported TGI. O=C(O)C(=Cc1ccc(-c2ccccc2)cc1)C(=O)O
> 55.6 µM

----------
Tested on: HOP-92 NSCLC
Assay Notes: NCI tumour cell line growth inhibition, 48 h
Test Readout: TGI

{"Compound": "CC(=O)c1sc2c(c1OC(=O)c1ccco1)c(=O)n(-c1ccccc1)c(=S)n2-c1ccccc1", "TGI": "22 µM"}
{"Compound": "Cc1cc(Cl)cc2c1NC(=O)C2(O)CC(=O)c1ccco1 (stereo unspecified)", "TGI": "> 100 µM"}
{"Compound": "COc1ccc2c(c1)C(=O)Cc1ccccc1CC2", "TGI": "> 100 µM"}
{"Compound": "COc1ccc(C(=O)c2sc(N(C)C)nc2-c2ccccc2)cc1", "TGI": "> 100 µM"}
{"Compound": "NC(=O)COC(=O)c1c(Cl)nc2sccn12", "TGI": "> 100 µM"}

Param item = CC(=O)Oc1cc(Cl)c(C)c2c1[C@H]1CC[C@]3(C)[C@@H](OC(C)=O)CC[C@H]3[C@@H]1CC2 ; retrieve measured TGI.
> 100 µM

Any idea what its TGI is? The compound is Cc1ccc(C(=O)N(CCCN)C(c2oc3cc(Cl)ccc3c(=O)c2Cc2ccccc2)C(C)C)cc1 (stereo unspecified)
1.76 µM

Please give the measured TGI for this compound: O=C(NC12CC3CC(CC(F)(C3)C1)C2)c1ccccc1
> 100 µM

I'd like to know its TGI. The compound in question is O=C1c2cccc([N+](=O)[O-])c2C(=O)N1c1ncn[nH]1
52.6 µM

Could you tell me which TGI is on file for CCCC/C=C/C/C=C/CCCCCCCCC(=O)OCC1CCCN2CCCCC12 (stereo unspecified) ?
> 100 µM

Requested field: TGI. Item: COCCCNC(=O)C1C(=O)C(=O)N(CCCOC)C1=O (stereo unspecified)
> 100 µM

TGI lookup needed for C/C(O)=C(\N=O)C(=O)Nc1ccc(Cl)cc1Cl , thanks.
> 100 µM

Which TGI is reported for this compound? Cc1cc2c(cc1C(=O)CCC(=O)O)CC1(C2)Cc2cc(C)c(C(=O)CCC(=O)O)cc2C1
> 100 µM

// lookup TGI for Nc1c(-c2ccc(Cl)cc2)[n+]([O-])c2ccccc2[n+]1[O-]
> 100 µM

// returns reported TGI for input COc1cc2cc(Oc3ccc(NC(=O)Nc4ccc(Cl)c(C(F)(F)F)c4)cc3)c(C)nc2cc1OCCN1CCOCC1
6.16 µM
